We begin with a simple list: items and their reported koff.
# measurement target: T1, recombinant human IL-6 (human, UniProt P05231 30-212)
# T1 construct: Flowed in solution over the captured antibodies
# T1 sequence (P05231 30-212 limits assumed): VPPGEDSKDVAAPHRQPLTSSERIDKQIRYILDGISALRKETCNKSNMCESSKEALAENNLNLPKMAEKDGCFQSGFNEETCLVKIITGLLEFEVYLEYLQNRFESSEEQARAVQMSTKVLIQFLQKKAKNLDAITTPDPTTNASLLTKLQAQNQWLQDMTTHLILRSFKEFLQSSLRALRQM
# measurement description: SPR (Biacore), supernatant IgG on Protein A, 25 C

binder	koff (s⁻¹)
anti-IL-6 antibody, heavy chain S30W, light chain WT (antibody, IgG1, V domains shown, Full IgG1 tested; V domains derived as in m2) VH: EVQLVESGGGLVQPGGSLRLSCAASGFTFWPFAMSWVRQAPGKGLEWVAKISPGGSWTYYSDTVTGRFTFSLDTSKSTAYLQMNSLRAEDTAVYYCARQLWGYYALDIWGQGTLVTVSS VL: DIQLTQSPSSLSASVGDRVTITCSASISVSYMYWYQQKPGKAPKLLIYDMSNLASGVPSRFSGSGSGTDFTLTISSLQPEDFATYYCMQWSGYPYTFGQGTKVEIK	0.000157
anti-IL-6 antibody, heavy chain L106F, light chain WT (antibody, IgG1, V domains shown, Full IgG1 tested; V domains derived as in m2) VH: EVQLVESGGGLVQPGGSLRLSCAASGFTFSPFAMSWVRQAPGKGLEWVAKISPGGSWTYYSDTVTGRFTFSLDTSKSTAYLQMNSLRAEDTAVYYCARQLWGYYAFDIWGQGTLVTVSS VL: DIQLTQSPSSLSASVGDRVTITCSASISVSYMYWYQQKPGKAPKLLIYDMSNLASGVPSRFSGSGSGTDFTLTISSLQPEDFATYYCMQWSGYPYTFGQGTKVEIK	0.000185
anti-IL-6 antibody, heavy chain WT, light chain S24P (antibody, IgG1, V domains shown, Full IgG1 tested; V domains derived as in m2) VH: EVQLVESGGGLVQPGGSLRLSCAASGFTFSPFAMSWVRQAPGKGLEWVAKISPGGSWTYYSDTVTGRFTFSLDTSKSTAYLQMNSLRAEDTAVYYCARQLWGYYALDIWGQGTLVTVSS VL: DIQLTQSPSSLSASVGDRVTITCPASISVSYMYWYQQKPGKAPKLLIYDMSNLASGVPSRFSGSGSGTDFTLTISSLQPEDFATYYCMQWSGYPYTFGQGTKVEIK	2.67e-06
anti-IL-6 antibody, heavy chain T65Y, light chain WT (antibody, IgG1, V domains shown, Full IgG1 tested; V domains derived as in m2) VH: EVQLVESGGGLVQPGGSLRLSCAASGFTFSPFAMSWVRQAPGKGLEWVAKISPGGSWTYYSDTVYGRFTFSLDTSKSTAYLQMNSLRAEDTAVYYCARQLWGYYALDIWGQGTLVTVSS VL: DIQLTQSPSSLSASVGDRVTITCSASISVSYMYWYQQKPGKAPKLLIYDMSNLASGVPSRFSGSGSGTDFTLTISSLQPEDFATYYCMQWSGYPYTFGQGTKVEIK	0.000206
anti-IL-6 antibody, heavy chain A105Q, light chain WT (antibody, IgG1, V domains shown, Full IgG1 tested; V domains derived as in m2) VH: EVQLVESGGGLVQPGGSLRLSCAASGFTFSPFAMSWVRQAPGKGLEWVAKISPGGSWTYYSDTVTGRFTFSLDTSKSTAYLQMNSLRAEDTAVYYCARQLWGYYQLDIWGQGTLVTVSS VL: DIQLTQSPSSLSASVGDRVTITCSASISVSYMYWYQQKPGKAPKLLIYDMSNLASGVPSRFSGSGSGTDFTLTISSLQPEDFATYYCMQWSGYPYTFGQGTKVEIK	0.000493
anti-IL-6 antibody, parent sequence (heavy chain WT, light chain WT) (antibody, V domains shown, Tested as full antibody from Expi293 cells in an engineered human IgG1 framework (L234A, L235A, G237A, L443C, EU); also called wild-type; parent molecule) VH: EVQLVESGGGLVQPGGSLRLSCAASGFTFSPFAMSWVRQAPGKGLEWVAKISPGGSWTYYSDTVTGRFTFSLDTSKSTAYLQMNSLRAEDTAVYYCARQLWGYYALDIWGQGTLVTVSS VL: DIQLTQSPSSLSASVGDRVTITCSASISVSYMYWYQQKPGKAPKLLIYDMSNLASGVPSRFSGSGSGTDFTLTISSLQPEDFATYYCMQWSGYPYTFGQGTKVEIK	0.000126
anti-IL-6 antibody, heavy chain T58V, light chain WT (antibody, IgG1, V domains shown, Full IgG1 tested; V domains derived as in m2) VH: EVQLVESGGGLVQPGGSLRLSCAASGFTFSPFAMSWVRQAPGKGLEWVAKISPGGSWVYYSDTVTGRFTFSLDTSKSTAYLQMNSLRAEDTAVYYCARQLWGYYALDIWGQGTLVTVSS VL: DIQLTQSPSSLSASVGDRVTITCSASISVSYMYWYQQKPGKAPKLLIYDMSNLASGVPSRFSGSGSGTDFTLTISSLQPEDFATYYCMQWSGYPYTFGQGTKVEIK	0.000181
anti-IL-6 antibody, heavy chain I108S, light chain WT (antibody, IgG1, V domains shown, Full IgG1 tested; V domains derived as in m2) VH: EVQLVESGGGLVQPGGSLRLSCAASGFTFSPFAMSWVRQAPGKGLEWVAKISPGGSWTYYSDTVTGRFTFSLDTSKSTAYLQMNSLRAEDTAVYYCARQLWGYYALDSWGQGTLVTVSS VL: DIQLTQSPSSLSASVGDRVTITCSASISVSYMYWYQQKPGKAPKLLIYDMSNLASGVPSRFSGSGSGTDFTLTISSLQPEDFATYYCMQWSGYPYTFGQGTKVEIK	0.000141
anti-IL-6 antibody, heavy chain WT, light chain S24V (antibody, IgG1, V domains shown, Full IgG1 tested; V domains derived as in m2) VH: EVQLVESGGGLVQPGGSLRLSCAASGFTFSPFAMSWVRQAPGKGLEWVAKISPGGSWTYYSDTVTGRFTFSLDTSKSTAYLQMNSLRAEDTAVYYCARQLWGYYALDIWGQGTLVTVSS VL: DIQLTQSPSSLSASVGDRVTITCVASISVSYMYWYQQKPGKAPKLLIYDMSNLASGVPSRFSGSGSGTDFTLTISSLQPEDFATYYCMQWSGYPYTFGQGTKVEIK	0.000137
anti-IL-6 antibody, heavy chain W57F, light chain WT (antibody, IgG1, V domains shown, Full IgG1 tested; V domains derived as in m2) VH: EVQLVESGGGLVQPGGSLRLSCAASGFTFSPFAMSWVRQAPGKGLEWVAKISPGGSFTYYSDTVTGRFTFSLDTSKSTAYLQMNSLRAEDTAVYYCARQLWGYYALDIWGQGTLVTVSS VL: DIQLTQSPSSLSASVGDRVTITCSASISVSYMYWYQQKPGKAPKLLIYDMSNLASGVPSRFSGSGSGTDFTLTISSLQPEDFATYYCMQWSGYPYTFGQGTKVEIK	0.000128
